Values compiled from paper PMC3702004.

Test system: Cyp1b1 mRNA in liver
TEST_PROTOCOL: Cyp1b1 gene expression in liver (real-time PCR)
Format: in vivo, female C57BL/6 mice
CONDITION: relative to TCDD; dose metric Syst plasma (ng/g lipid)
QUANTITY_KIND: REP Liver Cyp1b1 mRNA

Worked set:
- COMPOUND: "Clc1cc2c(cc1Cl)Oc1c(cc(Cl)c(Cl)c1Cl)O2"
  RESULT: 0.6
- COMPOUND: "Clc1ccc(-c2cc(Cl)c(Cl)c(Cl)c2Cl)cc1Cl"
  RESULT: 0.00002
- COMPOUND: "Clc1cc2oc3c(Cl)c(Cl)c(Cl)cc3c2cc1Cl"
  RESULT: 0.3

Now consider the entry below.
Prompt line: Returns the measured REP Liver Cyp1b1 mRNA for the input compound. Input: Clc1cc2c(cc1Cl)Oc1cc(Cl)c(Cl)cc1O2 [TCDD, 2,3,7,8-tetrachlorodibenzodioxin, reference compound]
Response line: 1

###

Test system: Cyp1a1 mRNA in liver
TEST_PROTOCOL: Cyp1a1 gene expression in liver (real-time PCR)
Format: in vivo, female C57BL/6 mice
CONDITION: dose metric Syst adipose; 3 days after single oral dose
QUANTITY_KIND: BMR20TCDD Liver Cyp1a1 mRNA (ng/g lipid)
Give bare numbers, in ng/g lipid.

Worked set:
- COMPOUND: "Clc1cc2c(cc1Cl)Oc1cc(Cl)c(Cl)cc1O2 [TCDD, 2,3,7,8-tetrachlorodibenzodioxin, reference compound]"
  QUANTITATIVE_RESULT: 2.50
- COMPOUND: "Clc1cc2c(cc1Cl)Oc1c(cc(Cl)c(Cl)c1Cl)O2 [PeCDD, 1,2,3,7,8-pentachlorodibenzodioxin]"
  QUANTITATIVE_RESULT: 2.36

Now consider the entry below.
Prompt line: For Cyp1a1 mRNA in liver, provide BMR20TCDD Liver Cyp1a1 mRNA of Clc1ccc(-c2cc(Cl)c(Cl)c(Cl)c2)cc1Cl [PCB-126, 3,3´,4,4´,5-pentachlorobiphenyl] please.
Response line: 315

###

System: hepatic CYP1A1 activity (ethoxyresorufin-O-deethylase, EROD)
TEST_PROTOCOL: Hepatic EROD activity in hepatic microsomal fractions after single oral dose
Format: in vivo, female C57BL/6 mice
CONDITION: dose metric Syst adipose; 3 days after single oral dose
QUANTITY_KIND: BMR20TCDD Liver EROD activity (ng/g lipid)
One number for each entry, in ng/g lipid.

- COMPOUND: "Clc1ccc(-c2cc(Cl)c(Cl)c(Cl)c2)cc1Cl"
  BMR20TCDD Liver EROD activity / ng/g lipid: 72.7

Give BMR20TCDD Liver EROD activity for all compounds that follow.
1. Clc1cc2c(cc1Cl)Oc1cc(Cl)c(Cl)cc1O2 [TCDD, 2,3,7,8-tetrachlorodibenzodioxin, reference compound]
2. Clc1cc2c(cc1Cl)Oc1c(cc(Cl)c(Cl)c1Cl)O2

Response line:
1. 1.23
2. 1.25

###

TEST_PROTOCOL: Body and organ weight, hepatic lipid content
Format: in vivo, female C57BL/6 mice
CONDITION: oral dose 25 µg/kg bw; day 3
QUANTITY_KIND: Thymus weight

- MOLECULE: "Clc1ccc(-c2cc(Cl)c(Cl)c(Cl)c2)cc1Cl"
  QUANTITY_KIND: "Thymus weight"
  RESULT: "0.29 ± 0.05 % of bw"

Give Thymus weight for all molecules that follow.
1. Clc1cc2oc3c(Cl)c(Cl)c(Cl)cc3c2cc1Cl
2. Clc1cc2c(cc1Cl)Oc1cc(Cl)c(Cl)cc1O2 [TCDD, 2,3,7,8-tetrachlorodibenzodioxin, reference compound]
3. Clc1cc2c(cc1Cl)Oc1c(cc(Cl)c(Cl)c1Cl)O2

Response line:
1. 0.24 ± 0.04 % of bw
2. 0.23 ± 0.02 % of bw
3. 0.26 ± 0.05 % of bw

###

TEST_PROTOCOL: Compound analysis: liver, adipose and plasma concentrations 3 days after a single oral dose
Type: in vivo, female C57BL/6 mice
CONDITION: female, C57BL/6, mouse, in vivo, po, 10 µg/kg bw, oral dose 10 µg/kg bw; 3 days after single oral dose; read-out: Adipose concentration
QUANTITY_KIND: concentration at 3 days (ng/g)
Answers are plain numbers, in ng/g.

- COMPOUND: "Clc1cc2c(cc1Cl)Oc1cc(Cl)c(Cl)cc1O2 [TCDD, 2,3,7,8-tetrachlorodibenzodioxin, reference compound]"
  concentration at 3 days, ng/g: 21

Prompt line: Returns the measured concentration at 3 days for the input compound. Input: Clc1cc2c(cc1Cl)Oc1c(cc(Cl)c(Cl)c1Cl)O2 [PeCDD, 1,2,3,7,8-pentachlorodibenzodioxin]
Response line: 16

###

So I've got a bunch of compounds here, and I need their BMR20TCDD Liver EROD activity values.
Tested on: hepatic CYP1A1 activity (ethoxyresorufin-O-deethylase, EROD)
TEST_PROTOCOL: Hepatic EROD activity in hepatic microsomal fractions after single oral dose
Type: in vivo, female C57BL/6 mice
CONDITION: dose metric Adm dose; 3 days after single oral dose
Give bare numbers, in µg/kg BW.

Worked set:
- COMPOUND: "Clc1cc2c(cc1Cl)Oc1c(cc(Cl)c(Cl)c1Cl)O2 [PeCDD, 1,2,3,7,8-pentachlorodibenzodioxin]"
  BMR20TCDD Liver EROD activity (µg/kg BW): 0.54
- COMPOUND: "Clc1ccc(-c2cc(Cl)c(Cl)c(Cl)c2)cc1Cl [PCB-126, 3,3´,4,4´,5-pentachlorobiphenyl]"
  BMR20TCDD Liver EROD activity (µg/kg BW): 29.3

Now consider the entry below.
Prompt line: For hepatic CYP1A1 activity (ethoxyresorufin-O-deethylase, EROD), provide BMR20TCDD Liver EROD activity of Clc1cc2c(cc1Cl)Oc1cc(Cl)c(Cl)cc1O2 [TCDD, 2,3,7,8-tetrachlorodibenzodioxin, reference compound] please.
Response line: 0.29

###

So I've got a bunch of compounds here, and I need their BMR20TCDD Liver Cyp1a1 mRNA values.
Test system: Cyp1a1 mRNA in liver
TEST_PROTOCOL: Cyp1a1 gene expression in liver (real-time PCR)
Type: in vivo, female C57BL/6 mice
CONDITION: dose metric Syst plasma; 3 days after single oral dose
Method: Animals. Eight-week-old female C57BL/6 mice (Harlan laboratories, Venray, the Netherlands) were randomly assigned to treatment groups (six animals per group) and allowed to acclimate for 1.5 weeks. […] RNA isolation and quantitative real-time polymerase chain reaction (PCR). […] Purity and concentration of the isolated RNA was determined by measuring the absorbance ratio at 260/280 nm and 230/260 nm with a Nanodrop 2000 spectrophotometer (Thermo Scientific, Asheville, NC, USA). […]
One number for each entry, in ng/g lipid.

- COMPOUND: "Clc1cc2c(cc1Cl)Oc1cc(Cl)c(Cl)cc1O2 [TCDD, 2,3,7,8-tetrachlorodibenzodioxin, reference compound]"
  QUANTITATIVE_RESULT: 2.66

Now consider the entry below.
Prompt line: Returns the measured BMR20TCDD Liver Cyp1a1 mRNA for the input compound. Input: Clc1cc2c(cc1Cl)Oc1c(cc(Cl)c(Cl)c1Cl)O2 [PeCDD, 1,2,3,7,8-pentachlorodibenzodioxin]
Response line: 3.94

###

Tested on: Cyp1a1 mRNA in liver
TEST_PROTOCOL: Cyp1a1 gene expression in liver (real-time PCR)
Format: in vivo, female C57BL/6 mice
CONDITION: relative to TCDD; dose metric Syst liver (ng/g liver)
Could you label it Condition met if measured REP Liver Cyp1a1 mRNA is 0.001 or higher, and Condition not met otherwise?

A selection of reference data follows.
- MOLECULE: "Clc1cc2c(cc1Cl)Oc1cc(Cl)c(Cl)cc1O2 [TCDD, 2,3,7,8-tetrachlorodibenzodioxin, reference compound]"
  MEASURED_TARGET: "Cyp1a1 mRNA in liver"
  CLASS: "Condition met"
- MOLECULE: "Clc1ccc(-c2cc(Cl)c(Cl)cc2Cl)cc1Cl"
  MEASURED_TARGET: "Cyp1a1 mRNA in liver"
  CLASS: "Condition not met"
- MOLECULE: "Clc1ccc(-c2cc(Cl)c(Cl)c(Cl)c2Cl)cc1Cl"
  MEASURED_TARGET: "Cyp1a1 mRNA in liver"
  CLASS: "Condition not met"

Prompt line: Reported REP Liver Cyp1a1 mRNA reaches at least 0.001 for "Clc1cc2c(cc1Cl)Oc1c(cc(Cl)c(Cl)c1Cl)O2" ?
Response line: Condition met

###

System: Cyp1a2 mRNA in liver
TEST_PROTOCOL: Cyp1a2 gene expression in liver (real-time PCR)
Type: in vivo, female C57BL/6 mice
CONDITION: dose metric Adm dose; 3 days after single oral dose
QUANTITY_KIND: BMR20TCDD Liver Cyp1a2 mRNA (µg/kg BW)
Give bare numbers, in µg/kg BW.

Give BMR20TCDD Liver Cyp1a2 mRNA for all compounds that follow.
1. Clc1cc2c(cc1Cl)Oc1c(cc(Cl)c(Cl)c1Cl)O2
2. Clc1ccc(-c2cc(Cl)c(Cl)c(Cl)c2)cc1Cl
3. Clc1cc2oc3c(Cl)c(Cl)c(Cl)cc3c2cc1Cl
4. Clc1cc2c(cc1Cl)Oc1cc(Cl)c(Cl)cc1O2 [TCDD, 2,3,7,8-tetrachlorodibenzodioxin, reference compound]

Response line:
[0.56, 87.4, 8.83, 0.41]
